Listing of recorded pIC50 by entry.
# Tested on: Normal bone marrow (mononucleated, T-cell depleted)
# MEASUREMENT_NOTES: MTT assay
# Type: cell-based
# MEASUREMENT_SETUP: T-cell; Normal bone marrow; 48 h; read-out: MTT50
pIC50: −log10 of the molar value.

Recorded pIC50, per entry:
- MOLECULE: "CCC(=O)OCSSc1ccccc1 [Compound Q, 1-phenyl-1,2-dithiapropyl propionate]"
  pIC50: "< 4.00"
- MOLECULE: "CSSCC(=O)c1ccccc1 [Compound P, phenacyl methyl disulphide]"
  pIC50: "< 4.00"
- MOLECULE: "COC(=O)CSSCC(=O)OC [O, dimethyl 3,4-dithiaadipate]"
  pIC50: "< 4.00"

Fill blank: measured pIC50 of the molecule CSCSCSC [J, 2,4,6-trithiaheptane] is ____. < 3.79
